Target: EGFR (Homo sapiens, UniProt P00533, DEL746-750)
Construct: endogenous in cells; host or cells: HCC827
Sequence (P00533 with tags, fused parts or gaps DEL746-750): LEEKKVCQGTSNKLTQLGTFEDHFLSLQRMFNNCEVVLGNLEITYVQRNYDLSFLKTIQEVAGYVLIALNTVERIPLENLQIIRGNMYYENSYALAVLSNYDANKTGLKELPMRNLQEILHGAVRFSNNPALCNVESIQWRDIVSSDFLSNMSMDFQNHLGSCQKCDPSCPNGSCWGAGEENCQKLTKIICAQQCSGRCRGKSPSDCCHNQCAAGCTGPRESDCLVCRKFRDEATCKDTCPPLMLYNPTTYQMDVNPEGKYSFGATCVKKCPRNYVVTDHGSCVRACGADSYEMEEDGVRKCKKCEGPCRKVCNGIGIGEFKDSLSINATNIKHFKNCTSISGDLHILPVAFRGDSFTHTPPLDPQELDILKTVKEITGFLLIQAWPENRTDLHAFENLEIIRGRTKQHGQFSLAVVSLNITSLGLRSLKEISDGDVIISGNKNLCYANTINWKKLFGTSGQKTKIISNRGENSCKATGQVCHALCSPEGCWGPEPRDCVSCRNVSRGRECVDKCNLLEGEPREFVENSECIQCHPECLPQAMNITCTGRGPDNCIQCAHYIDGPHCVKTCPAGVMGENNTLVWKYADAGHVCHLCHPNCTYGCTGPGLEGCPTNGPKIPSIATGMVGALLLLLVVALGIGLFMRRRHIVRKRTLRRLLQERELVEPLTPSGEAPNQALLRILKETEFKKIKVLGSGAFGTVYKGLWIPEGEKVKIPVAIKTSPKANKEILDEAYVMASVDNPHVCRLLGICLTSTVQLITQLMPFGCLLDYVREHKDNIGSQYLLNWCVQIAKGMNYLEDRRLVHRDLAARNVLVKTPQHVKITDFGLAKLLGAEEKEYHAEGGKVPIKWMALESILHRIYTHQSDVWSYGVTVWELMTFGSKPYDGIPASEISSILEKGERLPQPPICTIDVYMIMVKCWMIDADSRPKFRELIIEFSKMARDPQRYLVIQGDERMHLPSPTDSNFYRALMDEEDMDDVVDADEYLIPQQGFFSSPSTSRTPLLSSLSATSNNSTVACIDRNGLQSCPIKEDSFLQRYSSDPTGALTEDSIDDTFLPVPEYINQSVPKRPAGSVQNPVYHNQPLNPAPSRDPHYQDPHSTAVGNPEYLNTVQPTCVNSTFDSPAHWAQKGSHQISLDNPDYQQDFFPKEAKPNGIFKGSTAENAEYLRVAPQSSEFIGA
Sequence (Q96SW2 whole entry partner): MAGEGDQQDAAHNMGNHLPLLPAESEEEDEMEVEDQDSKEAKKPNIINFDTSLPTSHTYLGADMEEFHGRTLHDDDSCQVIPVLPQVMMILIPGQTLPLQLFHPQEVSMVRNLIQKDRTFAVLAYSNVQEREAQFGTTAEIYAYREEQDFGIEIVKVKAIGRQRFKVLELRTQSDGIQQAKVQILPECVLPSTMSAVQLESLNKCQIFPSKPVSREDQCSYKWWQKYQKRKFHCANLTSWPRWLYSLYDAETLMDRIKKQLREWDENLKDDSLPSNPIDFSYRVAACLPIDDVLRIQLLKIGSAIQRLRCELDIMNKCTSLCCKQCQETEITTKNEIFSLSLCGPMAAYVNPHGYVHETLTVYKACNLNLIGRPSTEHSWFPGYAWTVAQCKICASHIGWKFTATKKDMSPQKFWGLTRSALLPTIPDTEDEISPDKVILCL
Assay: Cell Degradation 2: EGFR degradation in HCC827 cells, HTRF assay
Format: cell-based
Conditions: 16 h treatment, EGFR degradation by HTRF
molecules and their reported log10 of DC50
Values reflect log10 of reported DC50 (µM).

Look over these answered cases.
>>> readout_number("CS(=O)(=O)N1CCc2cccc(Nc3nc(Nc4ccc(N5CCC(N6CCN(CCC7CCN(c8ccc(C9CCC(=O)NC9=O)cc8)CC7)CC6)CC5)c(F)c4)ncc3Cl)c21 (stereo not drawn)")
-2.26
>>> readout_number("CS(=O)(=O)N1CCc2cccc(Nc3nc(Nc4ccc(N5CCC(N6CCN(CC7CN(c8ccc9c(c8)CN(C8CCC(=O)NC8=O)C9=O)C7)CC6)CC5)c(F)c4)nc4[nH]ccc34)c21 (stereo not drawn)")
-2.51
>>> readout_number("CS(=O)(=O)N1CCc2cccc(Nc3nc(Nc4ccc(N5CCC(N6CCN(CCc7ccc(C8CCC(=O)NC8=O)c(F)c7)CC6)CC5)c5c4OCC5)ncc3Cl)c21 (stereo not drawn)")
-2.43
>>> readout_number("COc1cc(N2CCC(N3CCN(CCc4cc(F)c(C5CCC(=O)NC5=O)c(F)c4)CC3)CC2)c(C)cc1Nc1nc(Nc2cccc3c2N(S(C)(=O)=O)CC3)c2cc[nH]c2n1 (stereo not drawn)")
-1.70
>>> readout_number("COc1cc(N2CCC(N3CCN(CCc4ccc(C5CCC(=O)NC5=O)cc4)CC3)CC2)c(C)cc1Nc1ncc(Br)c(Nc2cccc3c2N(S(C)(=O)=O)CC3)n1 (stereo not drawn)")
-1.87
>>> readout_number("CN(CCCC1CN(c2ccc3c(c2)C(=O)N(C2CCC(=O)NC2=O)C3=O)C1)C1CCN(c2ccc(Nc3ncc(Cl)c(Nc4cccc5c4N(S(C)(=O)=O)CC5)n3)c3c2CCO3)CC1 (stereo not drawn)")
-1.43
>>> readout_number("CS(=O)(=O)N1CCc2cccc(Nc3nc(Nc4ccc(N5CCC(N6CCN(CC[C@@H]7CCN(c8ccc(C9CCC(=O)NC9=O)cc8)C7)CC6)CC5)c(F)c4)nc4[nH]ccc34)c21 (stereo partly drawn)")
-0.81
>>> readout_number("CS(=O)(=O)N1CCc2cccc(Nc3nc(Nc4ccc(N5CCC(N6CCN(CCCC7CN(c8ccc9c(c8)C(=O)N(C8CCC(=O)NC8=O)C9=O)C7)CC6)CC5)c(F)c4)nc4[nH]ccc34)c21 (stereo not drawn)")
-1.97
>>> readout_number("CS(=O)(=O)N1CCc2cccc(Nc3nc(Nc4ccc(N5CCC(N6CCN(C(=O)[C@@H]7CCN(c8ccc9c(c8)C(=O)N(C8CCC(=O)NC8=O)C9=O)C7)CC6)CC5)c(F)c4)ncc3Cl)c21 (stereo partly drawn)")
-2.52
>>> readout_number("COc1cc(N2CCC(N3CCN(CC4CCN(c5ccc(C6CCC(=O)NC6=O)cc5)CC4)CC3)CC2)c(C)cc1Nc1ncc(Br)c(Nc2cccc3c2N(S(C)(=O)=O)CC3)n1 (stereo not drawn)")
-2.09

Task item: Given CS(=O)(=O)N1CCc2cccc(Nc3nc(Nc4ccc(N5CCC(N6CCN(C(=O)[C@@H]7CCN(c8ccc9c(c8)C(=O)N(C8CCC(=O)NC8=O)C9=O)C7)CC6)CC5)c(F)c4)nc4[nH]ccc34)c21 (stereo partly drawn) , report its log10 of DC50 on EGFR (Homo sapiens, UniProt P00533, DEL746-750).
Reply: -1.66

Task item: Given CS(=O)(=O)N1CCc2cccc(Nc3nc(Nc4ccc(N5CCC(N6CCN(CCC7CCN(c8ccc9c(c8)C(=O)N(C8CCC(=O)NC8=O)C9=O)CC7)CC6)CC5)c5c4OCC5)ncc3Cl)c21 (stereo not drawn) , report its log10 of DC50 on EGFR (Homo sapiens, UniProt P00533, DEL746-750).
Reply: -2.46

Task item: Given CS(=O)(=O)N1CCc2cccc(Nc3nc(Nc4ccc(N5CCC(N6CCN(C(=O)CC7CCN(c8ccc(C9CCC(=O)NC9=O)cc8)CC7)CC6)CC5)c(F)c4)nc4[nH]ccc34)c21 (stereo not drawn) , report its log10 of DC50 on EGFR (Homo sapiens, UniProt P00533, DEL746-750).
Reply: -1.47
